Target: SARS-CoV-2(2019-nCoV)Spike Protein(S1 Subunit,His Tag) (SARS-CoV-2 (2019-nCoV), UniProt P0DTC2 16-685)
QUANTITY_MEASURED: EC50 (nM)
Your answer should be a plain number; it is taken to be in nM.

binder="PR301444 (antibody, V domains shown) VH: QVQLVQSGAEVKKPGASVKVSCKTSGYTFTEYTMYWVRQAPGQRLEWMGGINPNNGDTSYNQKFKGRVTITVDKSATTAYMELSSLRSEDTAVYYCARDGYPYYFAMDYWGQGTTVTVSS VL: DIQMTQSPSSLSASVGDRVTITCKASQNVDTNVAWYQQKPGKAPKGLIYSASHRYSGVPSRFSGSGSGTDFTLTISSLQPEDLATYFCQQYNTYPWTFGQGTKVEIK" readout_value=0.0204
binder="PR301565 (antibody, V domains shown) VH: QVQLVQSGAEVKKPGASVKISCKTSGYTFTEYTMYWVRQAPGQRLEWMGGINPNQGDTSYNQKFKGRATLTVDKSATTAYMELSSLRSEDTAVYYCARDGYPYYFAMDYWGQGTTVTVSS VL: DIQMTQSPSSLSASVGDRVTITCKASQNVDTNVAWYQQKPGKAPKGLIYSASHRYSGVPSRFSGSGSGTDFTLTISSLQPEDLATYFCQQYNTYPWTFGQGTKVEIK" readout_value=0.0143
binder="PR301568 (antibody, V domains shown) VH: QVQLVQSGAEVKKPGASVKISCKTSGYTFTEYTMYWVRQAPGQRLEWMGGINPNQGDTSYNQKFKGRATLTVDKSATTAYMELSSLRSEDTAVYYCAREGYPYYFAMDYWGQGTTVTVSS VL: DIQMTQSPSSLSASVGDRVTITCKASQNVDTNVAWYQQKPGKAPKGLIYSASHRYSGVPSRFSGSGSGTDFTLTISSVQPEDLATYFCQQYNTYPWTFGQGTKVEIK" readout_value=9.41

Please turn your attention to the following entry.
Entry PR301567 (antibody, V domains shown) VH: QVQLVQSGAEVKKPGASVKISCKTSGYTFTEYTMYWVRQAPGQRLEWMGGINPNQGDTSYNQKFKGRATLTVDKSATTAYMELSSLRSEDTAVYYCAREGYPYYFAMDYWGQGTTVTVSS VL: DIQMTQSPSSLSASVGDRVTITCKASQNVDTNVAWYQQKPGKAPKGLIYSASHRYSGVPSRFSGSGSGTDFTLTISSLQPEDLATYFCQQYNTYPWTFGQGTKVEIK has what EC50? 7.54
